- System name: UniProtKB O77078
- Sequence (whole entry): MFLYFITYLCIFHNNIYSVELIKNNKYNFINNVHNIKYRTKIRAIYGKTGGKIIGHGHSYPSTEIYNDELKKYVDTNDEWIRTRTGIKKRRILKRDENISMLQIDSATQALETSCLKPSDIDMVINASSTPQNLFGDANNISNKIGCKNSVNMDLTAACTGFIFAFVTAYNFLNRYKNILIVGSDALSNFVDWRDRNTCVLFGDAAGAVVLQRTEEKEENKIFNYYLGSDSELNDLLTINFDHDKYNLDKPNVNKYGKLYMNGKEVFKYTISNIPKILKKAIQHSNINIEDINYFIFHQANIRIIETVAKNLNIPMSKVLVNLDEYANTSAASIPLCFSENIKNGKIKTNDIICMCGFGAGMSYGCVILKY
- Procedure summary: Percent inhibition of Plasmodium falciparum beta-Ketoacyl-acyl carrier protein synthase III activity (MBP-pfKASIII) expressed in E. coli cells using [1-14C]acetyl-CoA as radioligand upon incubation at 37 degrees C for 15 minutes with compound dissolved in 2% DMSO at 100 uM
We use 20% as the dividing line for inhibition: on or above the line is t, below is f.

>>> assigned_class("C=CCC1(C)C(=O)SC(C)(CCCCCCCCCC)C1=O (configuration not stated)")
"f"
>>> assigned_class("CCCCCCC1(C)SC(O)=C(C)C1=O (configuration not stated)")
"f"
>>> assigned_class("CC(C)=CCC1(C)SC(O)=C(C)C1=O (stereo in doubt; 1a)")
"t"
>>> assigned_class("CCCCCCCCCCC1SC(O)=C(C)C1=O (configuration not stated)")
"t"
>>> assigned_class("CCCCCCC1(C)SC(O)=C(CC)C1=O (configuration not stated)")
"f"
>>> assigned_class("CC(C)=CCC/C(C)=C/CC1(C)SC(O)=C(C)C1=O (configuration not stated)")
"t"
>>> assigned_class("CCCCCCCCCCC1(C)SC(O)=C(CCC)C1=O (configuration not stated)")
"t"
>>> assigned_class("CCCCCCCCCCCCCCCCC1(C)SC(O)=C(Cc2ccccc2)C1=O (configuration not stated)")
"t"
>>> assigned_class("CCCCCCCCCCCCCCCCC1(C)SC(O)=C(CC)C1=O (configuration not stated)")
"t"
>>> assigned_class("CCCCCCCCCCC1(C)OC(O)=C(CCCC)C1=O (configuration not stated)")
"t"
>>> assigned_class("CCCCCCCCCCC1(C)SC(=O)C(CCC)=C1OCCCCCCO (configuration not stated)")
"f"
